assay-comment: Liver microsome stability, monkey
Type: in vitro ADME
run-parameters: liver microsomes
// reported half-life per item

structure	half-life
Cc1ncsc1-c1ccc([C@H](C)NC(=O)[C@@H]2C[C@@H](O)CN2C(=O)[C@@H](NC(=O)CN2CCN(c3ncc(-c4ccc(N(C(=O)NCc5ccccc5)[C@H]5CC[C@H](Nc6ccc(C#N)cn6)CC5)cc4)cn3)CC2)C(C)(C)C)cc1	> 45 min
Cc1ncsc1-c1ccc([C@H](C)NC(=O)[C@@H]2C[C@@H](O)CN2C(=O)[C@@H](NC(=O)CN2CCN(c3ccc(-c4ccc(N(C(=O)NCc5ccccc5)[C@H]5CC[C@H](Nc6ccc(C#N)cn6)CC5)cc4)cn3)CC2)C(C)(C)C)cc1	> 45 min

----------
test-system: CDK12 (Homo sapiens, UniProt Q9NYV4)
Sequence (Q9NYV4 whole entry, one chain of several): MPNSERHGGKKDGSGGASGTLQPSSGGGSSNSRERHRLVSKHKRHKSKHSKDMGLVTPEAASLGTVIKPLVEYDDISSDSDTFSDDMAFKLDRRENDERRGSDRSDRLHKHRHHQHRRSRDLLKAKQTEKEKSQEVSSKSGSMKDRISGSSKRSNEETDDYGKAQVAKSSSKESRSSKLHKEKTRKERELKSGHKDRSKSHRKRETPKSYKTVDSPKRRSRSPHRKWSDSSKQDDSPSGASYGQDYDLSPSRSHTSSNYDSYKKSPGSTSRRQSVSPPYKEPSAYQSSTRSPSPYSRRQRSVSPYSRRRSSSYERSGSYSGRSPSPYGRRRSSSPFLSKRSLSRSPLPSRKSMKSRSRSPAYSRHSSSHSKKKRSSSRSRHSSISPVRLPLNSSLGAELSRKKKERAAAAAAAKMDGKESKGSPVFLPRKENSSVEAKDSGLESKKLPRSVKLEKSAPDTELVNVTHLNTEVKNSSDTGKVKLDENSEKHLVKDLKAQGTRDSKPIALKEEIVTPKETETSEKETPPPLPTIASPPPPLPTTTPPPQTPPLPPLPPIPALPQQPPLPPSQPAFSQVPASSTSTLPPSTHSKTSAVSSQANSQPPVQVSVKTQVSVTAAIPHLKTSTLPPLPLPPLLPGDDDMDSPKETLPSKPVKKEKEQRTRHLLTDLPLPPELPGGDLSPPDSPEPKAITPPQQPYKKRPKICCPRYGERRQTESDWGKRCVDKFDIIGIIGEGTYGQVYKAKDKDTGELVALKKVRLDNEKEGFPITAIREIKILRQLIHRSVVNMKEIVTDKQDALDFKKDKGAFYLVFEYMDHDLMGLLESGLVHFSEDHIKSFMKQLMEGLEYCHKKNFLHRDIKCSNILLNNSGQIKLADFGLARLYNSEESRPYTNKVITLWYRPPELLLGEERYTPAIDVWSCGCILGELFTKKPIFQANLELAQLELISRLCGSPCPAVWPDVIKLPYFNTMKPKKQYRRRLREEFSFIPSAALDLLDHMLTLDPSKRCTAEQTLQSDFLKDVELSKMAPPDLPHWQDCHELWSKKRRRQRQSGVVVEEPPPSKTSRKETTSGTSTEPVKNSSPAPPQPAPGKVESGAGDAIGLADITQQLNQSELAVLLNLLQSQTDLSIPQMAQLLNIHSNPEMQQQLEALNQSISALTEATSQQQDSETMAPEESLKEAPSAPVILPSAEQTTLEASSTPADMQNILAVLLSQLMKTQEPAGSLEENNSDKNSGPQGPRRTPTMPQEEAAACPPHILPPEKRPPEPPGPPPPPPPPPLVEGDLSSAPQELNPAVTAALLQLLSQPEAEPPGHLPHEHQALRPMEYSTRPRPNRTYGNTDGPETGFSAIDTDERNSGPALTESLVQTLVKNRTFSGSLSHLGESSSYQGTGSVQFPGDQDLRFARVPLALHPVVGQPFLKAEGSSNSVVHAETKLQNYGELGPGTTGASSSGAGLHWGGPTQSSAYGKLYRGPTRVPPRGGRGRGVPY
assay-comment: Western blot degradation of CDK12 (Example 2)
Type: cell-based
Set-up: degradation of CDK12/13 protein in leukemia cells KASUMI-1, MV4-11, and Jurkat; endogenous in cells
run-parameters: DC50 classes; cell line not given; read-out: CDK12 degradation Activity
quantity: DC50

compound	value-reported
Cc1ncsc1-c1ccc([C@H](C)NC(=O)[C@@H]2C[C@@H](O)CN2C(=O)[C@@H](NC(=O)COCCOc2ccc(-c3ccc(N(C(=O)NCc4ccccc4)[C@H]4CC[C@H](Nc5ccc(C#N)cn5)CC4)cc3)cn2)C(C)(C)C)cc1	100 to 500 nM
CCNC(=O)N(c1ccc(-c2ccc(OCCOCCOCCOCCNc3cccc4c3C(=O)N(C3CCC(=O)NC3=O)C4=O)nc2)cc1)[C@H]1CC[C@H](Nc2ccc(C#N)cn2)CC1 (stereo partly shown)	1000 to 3000 nM
N#Cc1ccc(N[C@H]2CC[C@H](N(C(=O)NCc3ccccc3)c3ccc(-c4ccc(=O)n(CCOCCOCCOCCNc5cccc6c5C(=O)N(C5CCC(=O)NC5=O)C6=O)c4)cc3)CC2)nc1 (stereo partly shown)	3000 to 10000 nM
Cc1ncsc1-c1ccc([C@H](C)NC(=O)[C@@H]2C[C@@H](O)CN2C(=O)[C@@H](NC(=O)CN2CCN(c3ncc(-c4ccc(N(C(=O)NCc5ccccc5)[C@H]5CC[C@H](Nc6ccc(C#N)cn6)CC5)cc4)cn3)CC2)C(C)(C)C)cc1 [Formula 83]	< 100 nM

----------
test-system: UniProt Q14004
assay-comment: Western blot degradation of CDK13 (Example 3)
Assay type: cell-based
Design: degradation of CDK12/13 protein in leukemia cells KASUMI-1, MV4-11, and Jurkat; endogenous in cells
run-parameters: DC50 classes; cell line not given; read-out: CDK13 degradation Activity
quantity: DC50

molecule	value-reported
CC(=O)N(c1ccc(-c2ccn(CC3CCN(c4ccc5c(c4)C(=O)N(C4CCC(=O)NC4=O)C5=O)CC3)c(=O)c2)cc1)[C@H]1CC[C@H](Nc2ncc3ccccc3n2)CC1 (stereo partly drawn) [Formula 111]	1 to 3 µM
CC(=O)N(c1ccc(-c2ccc(C(=O)N[C@H]3CCC(=O)NC3=O)nc2)cc1)[C@H]1CC[C@H](Nc2ncc3ccccc3n2)CC1 [Formula 129]	3 to 10 µM
CC(=O)N(c1ccc(-c2cnc(OC3CN(c4ccc5c(c4)C(=O)N(C4CCC(=O)NC4=O)C5=O)C3)nc2)cc1)[C@H]1CC[C@H](Nc2ncc3ccccc3n2)CC1 (stereo partly drawn) [Formula 108]	0.1 to 0.5 µM

----------
// reported DC50 per item
test-system: CDK13 (Homo sapiens)
Sequence (Q14004 whole entry): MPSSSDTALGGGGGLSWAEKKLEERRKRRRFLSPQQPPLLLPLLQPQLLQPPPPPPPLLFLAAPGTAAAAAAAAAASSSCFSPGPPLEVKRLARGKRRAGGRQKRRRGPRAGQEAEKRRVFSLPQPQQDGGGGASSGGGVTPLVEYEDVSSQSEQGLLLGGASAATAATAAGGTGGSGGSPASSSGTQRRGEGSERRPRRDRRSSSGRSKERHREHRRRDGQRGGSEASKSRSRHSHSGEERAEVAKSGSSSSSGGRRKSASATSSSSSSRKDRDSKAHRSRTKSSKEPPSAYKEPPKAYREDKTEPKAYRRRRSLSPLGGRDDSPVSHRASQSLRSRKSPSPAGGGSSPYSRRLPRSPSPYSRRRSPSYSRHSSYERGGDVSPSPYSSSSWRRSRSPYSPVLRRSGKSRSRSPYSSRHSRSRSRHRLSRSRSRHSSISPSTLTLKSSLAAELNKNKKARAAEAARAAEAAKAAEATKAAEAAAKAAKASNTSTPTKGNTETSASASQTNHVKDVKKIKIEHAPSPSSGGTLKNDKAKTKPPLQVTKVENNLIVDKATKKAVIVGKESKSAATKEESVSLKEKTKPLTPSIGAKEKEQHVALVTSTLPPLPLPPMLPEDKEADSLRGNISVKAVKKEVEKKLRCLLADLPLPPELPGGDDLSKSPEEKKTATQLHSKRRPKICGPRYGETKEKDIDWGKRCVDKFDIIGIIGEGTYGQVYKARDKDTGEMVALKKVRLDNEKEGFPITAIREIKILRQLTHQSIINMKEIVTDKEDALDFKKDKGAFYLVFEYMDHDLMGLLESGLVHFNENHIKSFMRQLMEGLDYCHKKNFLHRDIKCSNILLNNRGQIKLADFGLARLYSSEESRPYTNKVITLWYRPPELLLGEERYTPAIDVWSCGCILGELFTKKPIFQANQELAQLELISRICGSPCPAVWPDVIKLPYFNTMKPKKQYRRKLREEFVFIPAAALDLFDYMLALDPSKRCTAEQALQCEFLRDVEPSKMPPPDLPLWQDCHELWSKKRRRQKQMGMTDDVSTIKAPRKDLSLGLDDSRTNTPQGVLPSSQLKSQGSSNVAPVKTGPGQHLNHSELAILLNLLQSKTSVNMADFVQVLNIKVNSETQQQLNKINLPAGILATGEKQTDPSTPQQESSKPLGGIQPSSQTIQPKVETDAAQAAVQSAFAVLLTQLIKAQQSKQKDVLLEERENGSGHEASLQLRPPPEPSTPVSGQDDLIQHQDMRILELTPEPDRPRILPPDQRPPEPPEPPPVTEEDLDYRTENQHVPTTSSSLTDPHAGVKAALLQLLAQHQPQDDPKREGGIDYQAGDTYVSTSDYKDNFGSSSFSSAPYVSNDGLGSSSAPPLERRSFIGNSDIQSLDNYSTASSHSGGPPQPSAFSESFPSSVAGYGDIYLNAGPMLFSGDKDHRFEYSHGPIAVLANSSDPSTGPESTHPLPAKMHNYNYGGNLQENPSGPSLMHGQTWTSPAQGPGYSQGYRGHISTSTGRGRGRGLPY
Sequence (O75909 whole entry partner): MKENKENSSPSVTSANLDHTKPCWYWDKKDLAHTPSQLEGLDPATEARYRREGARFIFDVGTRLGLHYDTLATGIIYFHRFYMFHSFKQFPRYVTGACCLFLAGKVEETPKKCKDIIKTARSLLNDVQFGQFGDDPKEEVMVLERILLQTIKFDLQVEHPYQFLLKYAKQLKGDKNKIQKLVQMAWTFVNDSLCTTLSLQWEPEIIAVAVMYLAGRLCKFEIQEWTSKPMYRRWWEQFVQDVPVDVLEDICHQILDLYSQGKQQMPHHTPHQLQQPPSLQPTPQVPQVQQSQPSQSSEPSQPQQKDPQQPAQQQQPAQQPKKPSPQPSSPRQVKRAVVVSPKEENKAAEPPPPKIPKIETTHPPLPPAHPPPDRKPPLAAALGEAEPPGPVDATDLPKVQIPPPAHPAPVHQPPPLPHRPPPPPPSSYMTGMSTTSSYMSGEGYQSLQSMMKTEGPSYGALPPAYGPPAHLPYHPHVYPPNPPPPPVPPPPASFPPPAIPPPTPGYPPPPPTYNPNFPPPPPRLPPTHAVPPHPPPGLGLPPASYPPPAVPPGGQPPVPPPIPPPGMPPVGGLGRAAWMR
assay-comment: Western blot degradation of CDK13 (Example 2)
Format: cell-based
Parameters: degradation of CDK12/13 protein in leukemia cells KASUMI-1, MV4-11, and Jurkat; endogenous in cells
run-parameters: DC50 classes; cell line not given; read-out: CDK13 degradation Activity
quantity: DC50

compound	value-reported
Cc1ncsc1-c1ccc([C@H](C)NC(=O)[C@@H]2C[C@@H](O)CN2C(=O)[C@@H](NC(=O)COCCOCCOc2ccc(-c3ccc(N(C(=O)NCc4ccccc4)[C@H]4CC[C@H](Nc5ccc(C#N)cn5)CC4)cc3)cn2)C(C)(C)C)cc1	500 to 1000 nM
Cc1ncsc1-c1ccc([C@H](C)NC(=O)[C@@H]2C[C@@H](O)CN2C(=O)[C@@H](NC(=O)CN2CCN(c3ncc(-c4ccc(N(C(=O)NCc5ccccc5)[C@H]5CC[C@H](Nc6ccc(C#N)cn6)CC5)cc4)cn3)CC2)C(C)(C)C)cc1 [Formula 83]	< 100 nM
Cc1ncsc1-c1ccc([C@H](C)NC(=O)[C@@H]2C[C@@H](O)CN2C(=O)[C@@H](NC(=O)CN2CCC(Oc3ccc(-c4ccc(N(C(=O)NCc5ccccc5)[C@H]5CC[C@H](Nc6ccc(C#N)cn6)CC5)cc4)cn3)CC2)C(C)(C)C)cc1	100 to 500 nM
Cc1ncsc1-c1ccc([C@H](C)NC(=O)[C@@H]2C[C@@H](O)CN2C(=O)[C@@H](NC(=O)N2CCC3(CC2)CCN(c2ccc(N(C(=O)NCc4ccccc4)[C@H]4CC[C@H](Nc5ccc(C#N)cn5)CC4)cc2)CC3)C(C)(C)C)cc1	3000 to 10000 nM

----------
test-system: CDK13 (Homo sapiens)
assay-comment: Western blot degradation of CDK13 (Example 2)
Assay type: cell-based
Set-up: degradation of CDK12/13 protein in leukemia cells KASUMI-1, MV4-11, and Jurkat; endogenous in cells
run-parameters: DC50 classes; cell line not given

structure	CDK13 degradation Activity
Cc1ncsc1-c1ccc([C@H](C)NC(=O)[C@@H]2C[C@@H](O)CN2C(=O)[C@@H](NC(=O)CC#CC2CN(c3ccc(N(C(=O)NCc4ccccc4)[C@H]4CC[C@H](Nc5ccc(C#N)cn5)CC4)cc3)C2)C(C)(C)C)cc1	−
Cc1ncsc1-c1ccc([C@H](C)NC(=O)[C@@H]2C[C@@H](O)CN2C(=O)[C@@H](NC(=O)COCCOCCn2cc(-c3ccc(N(C(=O)NCc4ccccc4)[C@H]4CC[C@H](Nc5ccc(C#N)cn5)CC4)cc3)ccc2=O)C(C)(C)C)cc1	−

----------
// reported half-life per item
assay-comment: Liver microsome stability, human
Format: in vitro ADME
run-parameters: liver microsomes

molecule	half-life
Cc1ncsc1-c1ccc([C@H](C)NC(=O)[C@@H]2C[C@@H](O)CN2C(=O)[C@@H](NC(=O)CN2CCN(c3ccc(-c4ccc(N(C(=O)NCc5ccccc5)[C@H]5CC[C@H](Nc6ccc(C#N)cn6)CC5)cc4)cn3)CC2)C(C)(C)C)cc1 [Formula 18]	> 45 min
Cc1ncsc1-c1ccc([C@H](C)NC(=O)[C@@H]2C[C@@H](O)CN2C(=O)[C@@H](NC(=O)CN2CCN(c3ncc(-c4ccc(N(C(=O)NCc5ccccc5)[C@H]5CC[C@H](Nc6ccc(C#N)cn6)CC5)cc4)cn3)CC2)C(C)(C)C)cc1 [Formula 45]	> 45 min

----------
// reported DC50 per item
test-system: CDK12 (Homo sapiens)
assay-comment: Western blot degradation of CDK12 (Example 3)
Type: cell-based
Design: degradation of CDK12/13 protein in leukemia cells KASUMI-1, MV4-11, and Jurkat; endogenous in cells
run-parameters: DC50 classes; cell line not given; read-out: CDK12 degradation Activity

molecule	DC50
CC(=O)N(c1ccc(-c2ccc(N3CCC(C(=O)N[C@H](C(=O)N4C[C@H](O)C[C@H]4C(=O)N[C@@H](C)c4ccc(-c5scnc5C)cc4)C(C)(C)C)CC3)nc2)cc1)[C@H]1CC[C@H](Nc2ncc3ccccc3n2)CC1	3000 to 10000 nM
CC(=O)N(c1ccc(N2CCN(CC3CCN(c4ccc5c(c4)C(=O)N(C4CCC(=O)NC4=O)C5=O)C3)CC2)cc1)[C@H]1CC[C@H](Nc2ncc3ccccc3n2)CC1 (some centres unmarked)	1000 to 3000 nM
CC(=O)N(c1ccc(-c2cncc(C(=O)N[C@H]3CCC(=O)NC3=O)c2)cc1)[C@H]1CC[C@H](Nc2ncc3ccccc3n2)CC1	3000 to 10000 nM
CC(=O)N(c1ccc(-c2ccn(CC3CN(c4ccc5c(c4)C(=O)N(C4CCC(=O)NC4=O)C5=O)C3)c(=O)c2)cc1)[C@H]1CC[C@H](Nc2ncc3ccccc3n2)CC1 (some centres unmarked)	100 to 500 nM
CC(=O)N(c1ccc(-c2cnc(OCCOCC(=O)N[C@H](C(=O)N3C[C@H](O)C[C@H]3C(=O)N[C@@H](C)c3ccc(-c4scnc4C)cc3)C(C)(C)C)nc2)cc1)[C@H]1CC[C@H](Nc2ncc3ccccc3n2)CC1	500 to 1000 nM

----------
test-system: CDK13 (Homo sapiens)
assay-comment: Western blot degradation of CDK13 (Example 2)
Format: cell-based
Set-up: degradation of CDK12/13 protein in leukemia cells KASUMI-1, MV4-11, and Jurkat; endogenous in cells
run-parameters: DC50 classes; cell line not given; read-out: CDK13 degradation Activity
// reported DC50 per item
quantity: DC50

molecule	value-reported
Cc1ncsc1-c1ccc([C@H](C)NC(=O)[C@@H]2C[C@@H](O)CN2C(=O)[C@@H](NC(=O)C2CCN(C(=O)C3CCN(c4ccc(-c5ccc(N(C(=O)NCc6ccccc6)[C@H]6CC[C@H](Nc7ccc(C#N)cn7)CC6)cc5)cn4)CC3)CC2)C(C)(C)C)cc1	1000 to 3000 nM
Cc1ncsc1-c1ccc([C@H](C)NC(=O)[C@@H]2C[C@@H](O)CN2C(=O)[C@@H](NC(=O)CN2CCC(COc3ccc(-c4ccc(N(C(=O)NCc5ccccc5)[C@H]5CC[C@H](Nc6ccc(C#N)cn6)CC5)cc4)cn3)CC2)C(C)(C)C)cc1	100 to 500 nM
N#Cc1ccc(N[C@H]2CC[C@H](N(C(=O)NCc3ccccc3)c3ccc(-c4ccc(OCCNc5cccc6c5C(=O)N(C5CCC(=O)NC5=O)C6=O)nc4)cc3)CC2)nc1 (some centres unmarked)	500 to 1000 nM
Cc1ncsc1-c1ccc([C@H](C)NC(=O)[C@@H]2C[C@@H](O)CN2C(=O)[C@@H](NC(=O)CN2CCN(c3ccc(-c4ccc(N(C(=O)NCc5ccccc5)[C@H]5CC[C@H](Nc6ccc(C#N)cn6)CC5)cc4)cn3)CC2)C(C)(C)C)cc1 (racemic) [Formula 73]	< 100 nM
Cc1ncsc1-c1ccc([C@H](C)NC(=O)[C@@H]2C[C@@H](O)CN2C(=O)[C@@H](NC(=O)CC#CCOc2ccc(-c3ccc(N(C(=O)NCc4ccccc4)[C@H]4CC[C@H](Nc5ccc(C#N)cn5)CC4)cc3)cn2)C(C)(C)C)cc1	3000 to 10000 nM
N#Cc1ccc(N[C@H]2CC[C@H](N(C(=O)NCc3ccccc3)c3ccc(N4CCN(CCNc5cccc6c5C(=O)N(C5CCC(=O)NC5=O)C6=O)CC4)cc3)CC2)nc1 (some centres unmarked)	1000 to 3000 nM
Cc1ncsc1-c1ccc([C@H](C)NC(=O)[C@@H]2C[C@@H](O)CN2C(=O)[C@@H](NC(=O)CN2CCN(c3ncc(-c4ccc(N(C(=O)NCc5ccccc5)[C@H]5CC[C@H](Nc6ccc(C#N)cn6)CC5)cc4)cn3)CC2)C(C)(C)C)cc1 [Formula 86]	< 100 nM
Cc1ncsc1-c1ccc([C@H](C)NC(=O)[C@@H]2C[C@@H](O)CN2C(=O)[C@@H](NC(=O)COCCOCCOCCN2CCN(c3ccc(N(C(=O)NCc4ccccc4)[C@H]4CC[C@H](Nc5ccc(C#N)cn5)CC4)cc3)CC2)C(C)(C)C)cc1	3000 to 10000 nM
